meta.source: patent US20210115018A1

# collection of IC50 values tested on menin protein (Homo sapiens, UniProt O00255)
# Sequence (O00255 whole entry): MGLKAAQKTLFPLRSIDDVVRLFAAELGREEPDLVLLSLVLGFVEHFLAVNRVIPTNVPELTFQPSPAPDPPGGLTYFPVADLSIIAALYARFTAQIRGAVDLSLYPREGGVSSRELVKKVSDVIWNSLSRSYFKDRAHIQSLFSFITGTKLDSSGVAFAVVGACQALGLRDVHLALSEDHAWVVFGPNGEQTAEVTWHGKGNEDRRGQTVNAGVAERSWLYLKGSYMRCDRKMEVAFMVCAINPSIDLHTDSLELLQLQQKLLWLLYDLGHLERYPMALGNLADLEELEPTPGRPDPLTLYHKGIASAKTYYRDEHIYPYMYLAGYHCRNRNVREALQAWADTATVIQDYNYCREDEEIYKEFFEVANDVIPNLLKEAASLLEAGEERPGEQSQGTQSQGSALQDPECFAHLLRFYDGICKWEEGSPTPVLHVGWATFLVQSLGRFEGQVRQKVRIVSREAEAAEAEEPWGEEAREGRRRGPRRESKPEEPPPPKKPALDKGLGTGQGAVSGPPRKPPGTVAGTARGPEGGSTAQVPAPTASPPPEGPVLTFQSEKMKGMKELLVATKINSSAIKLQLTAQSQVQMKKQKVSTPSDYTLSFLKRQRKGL
Just the number in nM, nothing appended.

Req: Any idea what its IC50 is? The molecule is C=CC(=O)N1CCOC[C@@H](S(=O)(=O)c2ccc(N3CC(CN4CCC([C@@](CN5CCC5)(c5cccc(F)c5)[C@H]5CCC[C@@H]5NC(=O)OC)CC4)(OC)C3)c(F)c2)C1
Resp: 5

Req: Now consider C=CC(=O)N1CCCC[C@@H](S(=O)(=O)c2ccc(N3CC(O)(CN4CCC([C@@](CN5CCC5)(c5cccc(F)c5)[C@H]5CCC[C@@H]5NC(=O)OC)CC4)C3)c(F)c2)C1 and answer again.
Resp: 8

Req: Now consider C=CC(=O)N1CCN(C(C)=O)[C@H](CS(=O)(=O)c2ccc(N3CC(CN4CCC([C@@](CN5CCC5)(c5cccc(F)c5)[C@H]5CCC[C@@H]5NC(=O)OC)CC4)(OC)C3)cc2)C1 and answer again.
Resp: 7

Req: Now consider C=C(CN(C)C)C(=O)N1CC(S(=O)(=O)c2ccc(N3CC(F)(CN4CCC([C@@](CN5CCC5)(c5cccc(F)c5)[C@H]5CCC[C@@H]5NC(=O)OC)CC4)C3)cc2)C1 and answer again.
Resp: 1

Req: Now consider C=CC(=O)N1CCCC[C@@H](S(=O)(=O)c2ccc(N3CC(F)(CN4CCC([C@@](CN5CCC5)(c5cccc(F)c5)[C@H]5CCC[C@@H]5NC(=O)OC)CC4)C3)c(F)c2)C1 and answer again.
Resp: 4

Req: Now consider C=C(CN1CCCCC1)C(=O)N1CC(S(=O)(=O)c2ccc(N3CC(CN4CCC([C@@](CN5CCC5)(c5cccc(F)c5)[C@H]5CCC[C@@H]5NC(=O)OC)CC4)C3)cc2)C1 and answer again.
Resp: 2

Req: Now consider C=CC(=O)N1CCCC[C@@H](S(=O)(=O)c2ccc(N3CC(CN4CCC([C@@](CN5CCC5)(c5cccc(F)c5)[C@H]5CCC[C@@H]5NC(=O)OC)CC4)C3)cc2)C1 and answer again.
Resp: 5

Req: Now consider C=CC(=O)Nc1cncc(S(=O)(=O)c2ccc(N3CC(F)(CN4CCC([C@@](CN5CCC5)(c5cccc(F)c5)[C@H]5CCC[C@@H]5NC(=O)OC)CC4)C3)c(F)c2)c1 and answer again.
Resp: 2

Req: Now consider C=CC(=O)N1CCN(C(=O)OC)CC(S(=O)(=O)c2ccc(N3CC(CN4CCC([C@@](CN5CCC5)(c5cccc(F)c5)[C@H]5CCC[C@@H]5NC(=O)OC)CC4)(OC)C3)cc2)C1 (stereo partly shown) and answer again.
Resp: 10

Req: Now consider C=CC(=O)N1CCCC[C@@H](S(=O)(=O)c2ccc(N3CC(CN4CCC([C@@](CN5CCC5)(c5cccc(F)c5)[C@H]5CCC[C@@H]5NC(=O)OC)CC4)C3)c(F)c2)C1 and answer again.
Resp: 4

Req: Now consider COC(=O)N[C@H]1CCC[C@@H]1[C@](CN1CCC1)(c1cccc(F)c1)C1CCN(CC2CN(c3ccc(S(=O)(=O)C4CN(C(=O)/C=C/CN5CCOCC5)C4)cc3)C2)CC1 and answer again.
Resp: 7

Req: Now consider COC(=O)N[C@H]1CCC[C@@H]1[C@](CN1CCC1)(c1cccc(F)c1)C1CCN(CC2CN(c3ccc(S(=O)(=O)C4CN(C(=O)/C=C/CN5CCC5)C4)cc3)C2)CC1 and answer again.
Resp: 2

Req: Now consider C=C(CN1CCOCC1)C(=O)N1CC(S(=O)(=O)c2ccc(N3CC(F)(CN4CCC([C@@](CN5CCC5)(c5cccc(F)c5)[C@H]5CCC[C@@H]5NC(=O)OC)CC4)C3)cc2)C1 and answer again.
Resp: 2

Req: Now consider C=CC(=O)N1CCC[C@@H](S(=O)(=O)c2ccc(N3CC(CN4CCC([C@@](CN5CCC5)(c5cccc(F)c5)[C@H]5CCC[C@@H]5NC(=O)OC)CC4)C3)c(F)c2)C1 and answer again.
Resp: 2

Req: Now consider C=CC(=O)N1CC(S(=O)(=O)c2ccc(N3CC(CN4CCC([C@@](CN(C)C)(c5cccc(F)c5)[C@H]5CCC[C@@H]5NC(=O)OC)CC4)C3)cc2)C1 and answer again.
Resp: 2

Req: Now consider C=CC(=O)N1CCCC[C@H](S(=O)(=O)c2ccc(N3CC(F)(CN4CCC([C@@](CN5CCC5)(c5cccc(F)c5)[C@H]5CCC[C@@H]5NC(=O)OC)CC4)C3)cc2)C1 and answer again.
Resp: 4

Req: Now consider COC(=O)N[C@H]1CCC[C@@H]1[C@](CN1CCC1)(c1cccc(F)c1)C1CCN(CC2CN(c3ccc(S(=O)(=O)C4CN(C(=O)/C=C/CN5CC(F)C5)C4)cc3)C2)CC1 and answer again.
Resp: 2

Req: Now consider C=CC(=O)N1CCCC[C@@H](S(=O)(=O)c2ccc(N3CC(F)(CN4CCC([C@@](CN5CCC5)(c5cccc(F)c5)[C@H]5CCC[C@@H]5NC(=O)OC)CC4)C3)cc2)C1 and answer again.
Resp: 5

Req: Now consider C=C(CN1CCCC1)C(=O)N1CC(S(=O)(=O)c2ccc(N3CC(CN4CCC([C@@](CN5CCC5)(c5cccc(F)c5)[C@H]5CCC[C@@H]5NC(=O)OC)CC4)C3)cc2)C1 and answer again.
Resp: 1
